Biological target: aldo-keto reductase 1C3 (AKR1C3) (Homo sapiens)
Construct: recombinant hAKR1C3 expressed in E. coli Rosetta (DE3), pET21b
Sequence (P42330 whole entry): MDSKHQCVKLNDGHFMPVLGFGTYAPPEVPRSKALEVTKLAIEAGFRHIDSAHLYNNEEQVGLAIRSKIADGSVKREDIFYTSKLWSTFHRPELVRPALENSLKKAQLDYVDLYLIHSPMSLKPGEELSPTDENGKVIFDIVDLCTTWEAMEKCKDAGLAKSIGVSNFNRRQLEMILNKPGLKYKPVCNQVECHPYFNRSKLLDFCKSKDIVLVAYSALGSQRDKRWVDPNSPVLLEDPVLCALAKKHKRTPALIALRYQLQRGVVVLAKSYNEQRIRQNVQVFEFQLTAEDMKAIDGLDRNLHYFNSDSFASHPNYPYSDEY
Assay: NADPH oxidation at […] nm with […],10-phenanthrenequinone, recombinant enzyme; also coumberone reduction in […]1 cells
result type: IC50 (µM)
One number for each entry, in µM.

In: Item under review: COc1ccc(-c2oc3cc(OC)c(OC)c(O)c3c(=O)c2OC)cc1O [CAS, casticin] . Reported IC50?
Out: 5.99
